Data provenance is PubChem BioAssay (NCATS).

- ASSAY INFO: qHTS assay for small molecule antagonists of the retinoid-related orphan receptor gamma (ROR-gamma) signaling pathway - cell viability counter screen (AID 720652);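 note: compound exposure lasted 16 hr before ATP read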
- EXPERIMENTAL PARAMETERS: RORgamma reporter cell line viability counter screen; series mostly up to 92.2 µM
Records with an inconclusive call do not appear. Activity calls are given as the source filed them. Calls come from the whole dose curve; as a rule, active = well fitted cell-killing curve with a large enough effect in the repeat runs; inconclusive = weak or mixed curves, or effect the other way; inactive = flat fitted curve, though single readings scatter.
Tick one outcome: active, inactive

Use the examples below as a reference point.
C=CC=O = inactive
CCCCCCCCCCCCCl = inactive
COC(=O)c1ccccc1N = inactive
Clc1ccccc1 = inactive
N#CC(O)c1ccccc1 (stereo not given) = inactive

Record lookup: outcome of this test for Nc1cccc(Cl)c1 ?
inactive

Call for entry ClCC(Cl)Cl :
inactive

Which outcome did this test record for the compound CN(C)C(=O)Nc1cccc(C(F)(F)F)c1 ?
inactive

Fill in: this test's call for Nc1ccc(-c2ccc(N)cc2)cc1 is ___
inactive

Test call, this compound: O=[N+]([O-])/C=C/c1ccccc1
active

I'd appreciate the recorded outcome for Clc1ccc(Cl)c(Cl)c1 from this test.
inactive

Entry Oc1cccc(Cl)c1 : call = ?
inactive

Recorded test outcome, item OC[P+](CO)(CO)CO
inactive

Could you please tell me the result logged for ClCc1ccccc1 in this assay?
inactive

Entry CC(C)[C@]12CC(=O)[C@H](C)[C@H]1C2 : call = ?
inactive

Each compound tested received a call. Report the one for O=C(Cc1ccccc1)OCc1ccccc1 .
inactive

# outcome recorded in this test, key = CC1CC(=O)O1 (stereo not given)
inactive

Please share the test call associated with O=[N+]([O-])c1cccc2c([N+](=O)[O-])cccc12 .
inactive

---

- ASSAY INFO: Cellular Toxicity (caspase-3) Hek293 (AID 664);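 note: cells exposed to compound for 16 h at 37 °C before readout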
- EXPERIMENTAL PARAMETERS: HEK293 caspase-3 activation, DMSO = 0%, 100 µM tamoxifen = 100%; at 92.2 µM (top of the series)
Inconclusive results are not listed.
The entries below come with measured caspase-3 activation values attached.
Unit % implied. Number only.

Could you tell me which caspase-3 activation is on file for [O-][Cl+2]([O-])O ?
-0.13

Which caspase-3 activation is reported for this compound? c1ccc(Nc2ccc(Nc3ccccc3)cc2)cc1
-2.23

Please give the measured caspase-3 activation for this compound: Nc1ccc([N+](=O)[O-])cc1[N+](=O)[O-]
-0.459

Suppose we examine the compound CCBr ; what caspase-3 activation value has been reported?
2.63

Which caspase-3 activation reading was recorded for the compound Nc1ccccc1-c1ccccc1 ?
1.72

// returns reported caspase-3 activation for input O=[N+]([O-])c1ccc(Cl)cc1
-0.181

---

- TESTED SYSTEM: Mitogen-activated protein kinase 10 (Mus musculus) (UniProt Q61831)
- ASSAY INFO: JNK3 AlphaScreen Assay (AID 530);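 note: kinase came from lysate of stimulated human HepG2 cells; signal reports phosphorylation of biotinylated GST-cJun 1-79 at Ser73 with 10 µM ATP; % is set by controls: 0 for no effect and ±100 for the full control effect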
- EXPERIMENTAL PARAMETERS: JNK3 lysate, c-Jun phosphorylation; series mostly up to 57.1 µM
- From the text: NIH Chemical Genomics Center [NCGC] NIH Molecular Libraries Screening Centers Network [MLSCN] The c-jun N-terminal kinase (JNK) family are serine/threonine protein kinases that phosphorylate c-jun, a component of the transcription factor protein-1 (AP-1). […] A homogeneous AlphaScreen is developed to measure the activity of JNK3. […] The phosphorylation of a biotinylated c-jun substrate by JNK3 can be detected with an antibody raised against phosphorylated c-jun. […]
Records with an inconclusive call do not appear. Calls of active or inactive are those of the source. Calls come from the whole dose curve; as a rule, active = well fitted curve in either direction with a large enough effect (not every such curve was filed as active); inconclusive = small, poorly fitted or top-dose-only effect, or another doubt; inactive = flat fitted curve, though single readings scatter.
RESULT TYPE: activity change, negative = inhibition

Would you please look over these solved cases?
CN1C[C@H](C(=O)N[C@@]2(C)O[C@@]3(O)[C@H]4CCCN4C(=O)[C@@H](Cc4ccccc4)N3C2=O)C=C2c3cccc4[nH]cc(c34)C[C@@H]21 = -2.44% [at 11.4 µM] (inactive)
COC(=O)[C@H]1C(=O)[C@H](C(=O)OC)[C@@H]2CC[C@H]1N2C = 4.63% [at 11.4 µM] (inactive)
CCC1=C(C[C@H]2NCCc3cc(OC)c(OC)cc32)C[C@H]2c3ccccc3CCN2C1 = 5.5% [at 11.4 µM] (inactive)
CC(C)(C)c1ccccc1O = inactive
COc1ccc(C[C@@H]2NC[C@H](O)[C@@H]2OC(C)=O)cc1 = inactive

Proceeding to the next compound to report its activity change, negative = inhibition.
May I ask what activity change, negative = inhibition has been recorded for Nc1nc(N)c(N=Nc2ccc([As](=O)(O)O)c(O)c2)c(N)n1 ?
1.64% [at 11.4 µM] (inactive)
